The following sequences are listed with their measured self-splicing fitness (ln) values.
Assay: self-splicing fitness, log relative to wild type (ln ratio); higher = more splicing; Tetrahymena group I intron in knt gene, E. coli kanamycin selection, DiMSum; sequences stand for … in CUCUCU…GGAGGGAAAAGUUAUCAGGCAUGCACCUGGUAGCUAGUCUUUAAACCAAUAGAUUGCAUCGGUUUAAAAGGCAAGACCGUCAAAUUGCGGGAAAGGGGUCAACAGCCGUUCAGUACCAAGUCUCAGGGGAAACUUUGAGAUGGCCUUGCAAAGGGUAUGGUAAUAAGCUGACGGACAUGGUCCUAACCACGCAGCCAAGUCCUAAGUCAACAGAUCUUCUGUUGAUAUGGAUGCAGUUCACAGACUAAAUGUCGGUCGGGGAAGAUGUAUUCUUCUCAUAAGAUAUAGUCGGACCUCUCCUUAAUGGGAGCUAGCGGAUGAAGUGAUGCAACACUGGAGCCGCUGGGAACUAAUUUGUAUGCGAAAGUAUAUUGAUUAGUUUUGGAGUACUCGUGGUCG;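 note: selection with 25 µg/mL kanamycin versus none on LB agar overnight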
Conditions: 30 °C
# output: bare number, no unit

# annotated cases, reported self-splicing fitness (ln) shown
CGCGAGCAAUAUUACGUCGG ... -1.99
CAUGAGCAAUAUUACGGAGA ... -3.91
UUCAAGCAAUAUUACGGUAU ... -2.84
UACAAGCAAUAUUACGGAGU ... -4.15
AAUAAGCAAUAUUACGUUGG ... -2.74
CCUCAGCAAUAUUACGGUAA ... -3.97
UGAUAGCAAUAUUACGAGUG ... -1.14
AAACAGCAAUAUUACGUGUG ... -2.38
CAAGAGCAAUAUUACGGAUU ... -3.03
CGUAAGCAAUAUUACGUGCA ... -0.906

Value of measured self-splicing fitness (ln) for the entry `GUGCAGCAAUAUUACGCUGU` : -3.35

Value of measured self-splicing fitness (ln) for the entry `CUGGAGCAAUAUUACGUUGG` : -2.89

Value of measured self-splicing fitness (ln) for the entry `UAGUAGCAAUAUUACGCAAA` : -3.4

----------
The following sequences are listed with their measured self-splicing fitness (ln) values.
Assay: self-splicing fitness, log relative to wild type (ln ratio); higher = more splicing; Tetrahymena group I intron in knt gene, E. coli kanamycin selection, DiMSum; sequences stand for … in CUCUCU…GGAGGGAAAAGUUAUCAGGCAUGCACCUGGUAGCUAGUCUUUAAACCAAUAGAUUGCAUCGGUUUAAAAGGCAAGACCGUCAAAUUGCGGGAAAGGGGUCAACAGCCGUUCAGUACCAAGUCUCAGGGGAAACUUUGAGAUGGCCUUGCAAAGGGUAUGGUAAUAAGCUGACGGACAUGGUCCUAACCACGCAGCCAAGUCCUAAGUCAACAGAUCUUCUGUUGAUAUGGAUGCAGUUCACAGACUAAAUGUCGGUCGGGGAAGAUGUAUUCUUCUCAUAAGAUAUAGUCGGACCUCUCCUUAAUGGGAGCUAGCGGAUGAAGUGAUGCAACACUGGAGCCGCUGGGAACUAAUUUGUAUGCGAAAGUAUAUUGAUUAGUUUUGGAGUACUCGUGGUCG
Conditions: 37 °C
# output: bare number, no unit

# annotated cases, reported self-splicing fitness (ln) shown
UAACAGCAAUAUUACGCUGG ... -2.42
UCUUAGCAAUAUUACGGUGA ... 0.15
GCACAGCAAUAUUACGGGAA ... -1.42
UUACAGCAAUAUUACGUCUG ... -1.07

Then there is this sequence:
Value of measured self-splicing fitness (ln) for the entry `GCAUAGCAAUAUUACGUUGA` : -1.76
